- measuredTarget: UniProt P56524
- Sequence (P56524 whole entry): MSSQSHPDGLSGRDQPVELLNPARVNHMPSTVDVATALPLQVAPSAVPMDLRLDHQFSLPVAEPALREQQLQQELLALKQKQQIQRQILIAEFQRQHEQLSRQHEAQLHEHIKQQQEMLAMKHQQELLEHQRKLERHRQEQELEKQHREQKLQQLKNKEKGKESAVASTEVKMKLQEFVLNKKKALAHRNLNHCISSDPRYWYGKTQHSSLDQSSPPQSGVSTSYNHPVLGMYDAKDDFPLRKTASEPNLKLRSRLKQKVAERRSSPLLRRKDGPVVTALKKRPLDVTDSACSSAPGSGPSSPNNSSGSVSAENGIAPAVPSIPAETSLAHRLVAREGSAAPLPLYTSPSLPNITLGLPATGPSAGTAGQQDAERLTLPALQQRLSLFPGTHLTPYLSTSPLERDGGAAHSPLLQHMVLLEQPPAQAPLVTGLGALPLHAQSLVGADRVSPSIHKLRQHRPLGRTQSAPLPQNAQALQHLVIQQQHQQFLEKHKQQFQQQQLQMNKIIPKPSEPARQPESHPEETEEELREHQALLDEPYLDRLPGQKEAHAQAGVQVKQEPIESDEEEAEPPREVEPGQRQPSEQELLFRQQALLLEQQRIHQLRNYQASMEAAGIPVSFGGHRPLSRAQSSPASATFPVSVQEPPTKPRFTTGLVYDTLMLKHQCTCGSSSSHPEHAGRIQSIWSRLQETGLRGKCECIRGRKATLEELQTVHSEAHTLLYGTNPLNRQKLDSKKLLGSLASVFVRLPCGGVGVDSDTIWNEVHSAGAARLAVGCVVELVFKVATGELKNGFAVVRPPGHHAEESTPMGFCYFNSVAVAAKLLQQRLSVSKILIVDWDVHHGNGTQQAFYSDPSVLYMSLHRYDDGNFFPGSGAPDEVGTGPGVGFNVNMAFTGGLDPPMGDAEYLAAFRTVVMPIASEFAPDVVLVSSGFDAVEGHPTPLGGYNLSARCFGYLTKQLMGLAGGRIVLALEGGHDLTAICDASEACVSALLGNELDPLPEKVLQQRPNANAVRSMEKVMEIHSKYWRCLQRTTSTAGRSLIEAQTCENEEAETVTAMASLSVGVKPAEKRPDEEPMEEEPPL
measuredQuantity: IC50

So what's the measured IC50 for this one? NC(=O)c1ccccc1Nc1cccc(OCCc2ccccc2)c1
> 30 µM

---

I'd be grateful if you could share measured IC50 for these entries.
- measuredTarget: NAD-dependent protein deacetylase sirtuin-1 (Homo sapiens, UniProt Q96EB6)
- Sequence (Q96EB6 whole entry): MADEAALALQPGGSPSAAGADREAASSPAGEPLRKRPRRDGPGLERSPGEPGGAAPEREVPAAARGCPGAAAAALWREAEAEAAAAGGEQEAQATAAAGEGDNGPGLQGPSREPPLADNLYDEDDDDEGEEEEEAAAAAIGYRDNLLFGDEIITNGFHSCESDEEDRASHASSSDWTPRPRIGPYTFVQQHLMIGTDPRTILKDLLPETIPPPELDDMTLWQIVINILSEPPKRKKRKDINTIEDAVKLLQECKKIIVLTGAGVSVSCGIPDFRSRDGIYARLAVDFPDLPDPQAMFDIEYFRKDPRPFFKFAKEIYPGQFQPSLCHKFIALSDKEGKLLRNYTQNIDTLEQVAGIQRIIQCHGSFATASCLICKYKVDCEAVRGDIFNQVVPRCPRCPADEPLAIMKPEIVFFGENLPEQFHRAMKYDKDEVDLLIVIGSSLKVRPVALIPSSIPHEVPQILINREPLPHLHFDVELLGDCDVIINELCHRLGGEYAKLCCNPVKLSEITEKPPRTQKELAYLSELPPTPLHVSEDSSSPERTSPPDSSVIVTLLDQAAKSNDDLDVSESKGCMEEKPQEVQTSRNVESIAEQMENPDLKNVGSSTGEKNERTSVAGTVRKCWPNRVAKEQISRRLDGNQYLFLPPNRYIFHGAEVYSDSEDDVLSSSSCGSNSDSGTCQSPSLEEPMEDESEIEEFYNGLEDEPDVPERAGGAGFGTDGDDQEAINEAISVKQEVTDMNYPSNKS
- experimentSummary: Inhibition of human recombinant SIRT1 using Fluor de Lys-SIRT as substrate incubated for 60 mins prior to substrate addition measured after 60 mins by fluorimetric analysis

Need IC50, item Cc1ccc(CCOc2cccc(Nc3ccccc3C(N)=O)c2)cc1
> 100 µM

IC50 for NC(=O)c1ccccc1Nc1cccc(OCCc2cccc(C(F)(F)F)c2)c1 ?
> 100 µM

Given the entry CC(=O)Nc1ccc(Nc2ccccc2C(N)=O)cc1 , report its measured IC50.
> 100 µM

# input compound: NC(=O)c1ccccc1Nc1ccc(OCc2ccccc2)cc1 ; wanted: its IC50
> 100 µM

Consider the compound shown here: Cc1ccccc1CCOc1cccc(Nc2ccccc2C(N)=O)c1 What is its recorded IC50?
> 100 µM

Quick one: IC50 of O=C(O)c1ccccc1Nc1ccccc1 ?
68 µM

Fill blank: measured IC50 of the compound NC(=O)c1ccccc1Nc1cccc(OCCc2ccc(C(F)(F)F)cc2)c1 is ____.
> 100 µM

Entry under review: NC(=O)c1ccccc1Nc1cccc(OCCc2ccccc2C(F)(F)F)c1 . Reported IC50?
> 100 µM

# IC50 lookup, item NC(=O)c1ccccc1Nc1cccc(OCCc2ccccc2F)c1
> 100 µM

Could you share which IC50 value was measured for NC(=O)c1ccccc1Nc1cccc(OCc2ccccc2)c1 ?
> 300 µM

Report IC50 for NC(=O)c1ccccc1Nc1cccc(OCCc2cccc(Br)c2)c1 please.
> 100 µM

Entry COc1ccc(Nc2ccccc2C(N)=O)cc1 has what IC50?
> 100 µM

State the recorded IC50 for this entry: COC(=O)c1cccc(Nc2ccccc2C(N)=O)c1
> 100 µM

Item NC(=O)c1ccccc1Nc1cccc(OCCCc2ccccc2)c1 has what recorded IC50?
> 300 µM

# input compound: NC(=O)c1ccccc1Nc1ccc(Oc2ccccc2)cc1 ; wanted: its IC50
> 100 µM

Could you share which IC50 value was measured for NC(=O)c1ccccc1Nc1cccc(C(=O)Nc2ccccc2)c1 ?
> 100 µM

Could you tell me which IC50 is on file for NC(=O)c1ccccc1Nc1cccc(NC(=O)c2ccccc2)c1 ?
> 100 µM

Using the record for NC(=O)c1ccccc1Oc1ccccc1 , report its IC50.
> 100 µM

Which IC50 value is on record for Cc1cccc(CCOc2cccc(Nc3ccccc3C(N)=O)c2)c1 ?
> 100 µM

Bench note: what IC50 did NC(=O)c1ccccc1Nc1ccc(NC(=O)c2ccncc2)cc1 show?
> 100 µM

Query (compound): CN(c1ccccc1)c1ccccc1C(N)=O ; field requested: IC50
75 µM

Sample NC(=O)c1ccccc1Nc1ccc(NC(=O)c2ccccc2)cc1 — what was its IC50?
> 100 µM

Record request: IC50 value, item NC(=O)c1ccccc1Nc1cccc(OCCc2ccccc2)c1
> 100 µM

IC50 lookup needed for N#C/C(=C\c1ccc(-c2cc(Cl)ccc2Cl)o1)C(=O)Nc1cccc2ncccc12 , thanks.
30 µM

Consider the compound shown here: NC(=O)c1ccccc1Nc1cccc(NC(=O)Cc2ccccc2)c1 What is its recorded IC50?
> 100 µM

Consider the compound shown here: NC(=O)c1ccccc1Nc1cccc(OCCc2ccc(Br)cc2)c1 What is its recorded IC50?
> 100 µM

IC50 for CN(C(=O)c1cccc(Nc2ccccc2C(N)=O)c1)c1ccccc1 ?
> 100 µM

# lookup: IC50 of NC(=O)c1ccccc1Nc1ccc(NC(=O)c2cccnc2)cc1
> 100 µM

Requested field: IC50. Item: NC(=O)c1ccccc1Nc1cccc(OCCc2cccc(F)c2)c1
> 100 µM

Given the compound CN(C(=O)c1ccc(Nc2ccccc2C(N)=O)cc1)c1ccccc1 , what is its reported IC50?
> 100 µM

For CN(C(=O)Cc1ccccc1)c1cccc(Nc2ccccc2C(N)=O)c1 , what is its reported IC50?
> 100 µM

// query IC50 value for entry NC(=O)c1ccccc1Nc1ccc(CCc2ccccc2)cc1
> 100 µM

Endpoint output: IC50 of NC(=O)c1ccccc1Nc1cccc(CCC(=O)O)c1 . Value?
93 µM

Request the reported IC50 associated with CN(C(=O)c1ccccc1)c1cccc(Nc2ccccc2C(N)=O)c1
> 100 µM

Look up IC50 for this compound: NC(=O)c1ccccc1Nc1cccc(C(=O)NCc2ccccc2)c1
> 100 µM
